Numbers sourced from patent US11702418B2.

subject of test: recombinant human SOS1 polypeptide (amino acids 560-1049) (Homo sapiens (Human))
Sequence (Q07889 560-1049): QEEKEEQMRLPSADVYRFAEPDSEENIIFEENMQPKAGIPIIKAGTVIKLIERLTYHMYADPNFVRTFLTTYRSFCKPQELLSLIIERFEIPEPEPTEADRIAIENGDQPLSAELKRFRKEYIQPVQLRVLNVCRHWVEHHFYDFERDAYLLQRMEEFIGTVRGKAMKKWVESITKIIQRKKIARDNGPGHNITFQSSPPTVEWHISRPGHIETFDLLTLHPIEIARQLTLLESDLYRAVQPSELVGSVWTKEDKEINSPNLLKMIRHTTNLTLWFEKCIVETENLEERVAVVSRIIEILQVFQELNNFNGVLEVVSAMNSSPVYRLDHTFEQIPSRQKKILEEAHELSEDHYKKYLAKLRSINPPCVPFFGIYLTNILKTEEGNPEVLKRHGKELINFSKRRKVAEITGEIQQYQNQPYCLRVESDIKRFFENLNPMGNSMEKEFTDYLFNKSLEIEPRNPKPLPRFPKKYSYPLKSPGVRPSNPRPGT
assay name: biochemical
Assay type: binding
measurement setup: read-out: Ki, Inhibition of Labeled Tracer Binding to SOS1
Structures can show the parent of a compound that is named as a salt.
Would you mind telling me the reported pKi of each entry?
Entry type: numeric. Quantity: pKi, the -log10 of concentration in molar units.

In plain terms, Cc1c([C@@H](C)Nc2nnc(C)c3ccc(OC[C@H]4CCCN4)cc23)cccc1C(F)(F)F [Example 7-7, hydrochloride salt] has a documented pKi of 9.04

In plain terms, "Cc1c([C@@H](C)Nc2nnc(CN(C)C)c3ccc(N4CCOCC4)cc23)cccc1C(F)(F)F" has a documented pKi of 8.05

In plain terms, Cc1c([C@@H](C)Nc2nnc(C)c3ccc(N4CC[C@@H](N(C)C)C4)cc23)cccc1C(F)(F)F [Example 10-26, hydrochloride salt] has a documented pKi of 9.33

In plain terms, Cc1c(C#N)cccc1[C@@H](C)Nc1nnc(C)c2ccc(N3CC(C)(N4CCOCC4)C3)cc12 [Example 10-83, Formate salt] has a documented pKi of 8.34

In plain terms, Cc1c([C@@H](C)Nc2nnc(C)c3ccc(N4CCC(N(C)C)C4)cc23)cccc1C(F)(F)F (stereo in doubt) [Example 10-27, hydrochloride salt] has a documented pKi of 9.34

In plain terms, Cc1c(C(F)F)cccc1[C@@H](C)Nc1nnc(C)c2ccc(N3CCC(N4CCC4)CC3)cc12 [Example 10-44, hydrochloride salt] has a documented pKi of 9.29

In plain terms, Cc1nnc(N[C@H](C)c2ccc(F)cc2Cl)c2cc(N3CCOCC3)ccc12 [Example 10-59, Hydrochloride salt] has a documented pKi of 7.51

In plain terms, Cc1c(C#N)cccc1[C@@H](C)Nc1nnc(C)c2ccc(N3C[C@H]4C[C@@H]3CO4)cc12 [Example 10-54, Formate salt] has a documented pKi of 8.87

In plain terms, Cc1c(C#N)cccc1[C@@H](C)Nc1nnc(C)c2ccc(N3CC4(CCOC4)C3)cc12 [Example 10-80, Hydrochloride salt] has a documented pKi of 8.24

In plain terms, Cc1c(C#N)cccc1[C@@H](C)Nc1nnc(C)c2ccc(N3CCN4CCCC[C@@H]4C3)cc12 [Example 10-82, Hydrochloride salt] has a documented pKi of 9.07

In plain terms, Cc1c([C@@H](C)Nc2nnc(C)c3ccc(N4CC(N(C)C)C4)cc23)cccc1C(F)(F)F [Example 10-46, formate salt] has a documented pKi of 8.95

In plain terms, Cc1c(C#N)cccc1[C@@H](C)Nc1nnc(C)c2ccc(N3CC4(COCCN4C)C3)cc12 [Example 10-79, Formate salt] has a documented pKi of 8.38

In plain terms, Cc1c([C@@H](C)Nc2nnc(C)c3ccc(N4CC5(CCN(C)C5)C4)cc23)cccc1C(F)(F)F [Example 10-41, hydrochloride salt] has a documented pKi of 9.28

In plain terms, Cc1c(C#N)cccc1[C@@H](C)Nc1nnc(C)c2ccc(N3CC(C)(N(C)C)C3)cc12 [Example 10-74, Hydrochloride salt] has a documented pKi of 8.37

In plain terms, "Cc1cc(C#N)cc([C@@H](C)Nc2nnc(C)c3cnc(N4CCOCC4)cc23)c1" has a documented pKi of 7.84

In plain terms, Cc1c([C@@H](C)Nc2nnc(C)c3ccc(N4CC5CCC(C4)N5C)cc23)cccc1C(F)(F)F [Example 10-29, hydrochloride salt] has a documented pKi of 9.41

In plain terms, Cc1c(C#N)cccc1[C@@H](C)Nc1nnc(C)c2ccc(N3CCN4CCOC[C@@H]4C3)cc12 [Example 10-56, Formate salt] has a documented pKi of 8.80

In plain terms, Cc1c([C@@H](C)Nc2nnc(C)c3ccc(N4CCC5(CCNC5)CC4)cc23)cccc1C(F)(F)F [Example 10-36, hydrochloride salt] has a documented pKi of 9.64

In plain terms, Cc1c([C@@H](C)Nc2nnc(C)c3ccc(N4CCC5(CCN(C)C5)CC4)cc23)cccc1C(F)(F)F [Example 10-37, hydrochloride salt] has a documented pKi of 9.62
